# IC50 measurements, system: Prostaglandin G/H synthase 2 (Homo sapiens)
# Sequence (P35354 whole entry): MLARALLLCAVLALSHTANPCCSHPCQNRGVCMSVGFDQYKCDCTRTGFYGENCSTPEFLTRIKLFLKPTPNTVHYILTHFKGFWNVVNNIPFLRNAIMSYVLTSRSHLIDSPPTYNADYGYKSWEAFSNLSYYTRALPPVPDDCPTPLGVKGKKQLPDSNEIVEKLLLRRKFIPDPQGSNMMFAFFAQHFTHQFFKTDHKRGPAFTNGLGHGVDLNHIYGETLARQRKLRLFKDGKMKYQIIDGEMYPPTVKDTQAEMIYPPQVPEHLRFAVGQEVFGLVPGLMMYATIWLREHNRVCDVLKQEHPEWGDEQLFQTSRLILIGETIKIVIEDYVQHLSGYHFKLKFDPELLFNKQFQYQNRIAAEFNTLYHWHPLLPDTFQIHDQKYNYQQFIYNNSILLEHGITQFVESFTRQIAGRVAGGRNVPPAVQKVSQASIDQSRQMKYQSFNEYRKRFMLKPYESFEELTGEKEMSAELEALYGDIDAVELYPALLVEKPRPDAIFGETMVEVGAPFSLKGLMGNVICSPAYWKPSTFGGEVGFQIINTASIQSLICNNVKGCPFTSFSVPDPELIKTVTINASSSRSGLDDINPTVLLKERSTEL
assay_endpoint: IC50 (nM)

{"structure_smiles": "NS(=O)(=O)c1ccc(-c2nc(NCc3cccs3)cc(C(F)(F)F)n2)cc1", "value_qualifier": "=", "test_result": 22.3}
{"structure_smiles": "CS(=O)(=O)c1ccc(-c2nc(NC3CCCC3)cc(C(F)(F)F)n2)cc1", "value_qualifier": "=", "test_result": 192}
{"structure_smiles": "CS(=O)(=O)c1ccc(-c2nc(NCc3ccccn3)cc(C(F)(F)F)n2)cc1", "value_qualifier": ">", "test_result": 10000}
{"structure_smiles": "CS(=O)(=O)c1ccc(-c2nc(NC3CCCCC3)cc(C(F)(F)F)n2)cc1", "value_qualifier": "=", "test_result": 253}
{"structure_smiles": "NS(=O)(=O)c1ccc(-c2nc(NCc3cccnc3)cc(C(F)(F)F)n2)cc1", "value_qualifier": ">", "test_result": 10000}

Provenance of the data: ChEMBL document CHEMBL1143107
